# tgt: Dipeptidyl peptidase 4 (Homo sapiens, UniProt P27487)
# Sequence (P27487 whole entry): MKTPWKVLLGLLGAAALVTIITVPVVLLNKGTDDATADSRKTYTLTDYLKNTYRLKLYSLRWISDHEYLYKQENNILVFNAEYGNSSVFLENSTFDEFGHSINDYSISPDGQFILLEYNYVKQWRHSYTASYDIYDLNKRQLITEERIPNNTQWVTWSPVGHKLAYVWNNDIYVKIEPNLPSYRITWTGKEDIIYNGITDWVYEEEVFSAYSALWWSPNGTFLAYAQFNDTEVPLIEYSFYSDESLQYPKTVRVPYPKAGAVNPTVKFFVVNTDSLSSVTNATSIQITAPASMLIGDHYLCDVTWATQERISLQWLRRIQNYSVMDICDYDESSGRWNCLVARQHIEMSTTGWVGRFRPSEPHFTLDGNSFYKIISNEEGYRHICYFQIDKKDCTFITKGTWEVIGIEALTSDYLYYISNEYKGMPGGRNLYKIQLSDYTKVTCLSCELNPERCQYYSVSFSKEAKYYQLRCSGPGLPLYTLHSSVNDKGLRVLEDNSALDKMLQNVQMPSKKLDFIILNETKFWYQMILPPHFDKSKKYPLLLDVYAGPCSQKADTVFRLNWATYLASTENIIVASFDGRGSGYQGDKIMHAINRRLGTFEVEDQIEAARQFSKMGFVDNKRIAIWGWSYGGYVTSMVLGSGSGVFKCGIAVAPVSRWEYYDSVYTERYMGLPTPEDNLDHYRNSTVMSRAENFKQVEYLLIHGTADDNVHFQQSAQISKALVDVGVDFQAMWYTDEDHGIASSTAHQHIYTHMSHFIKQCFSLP
pIC50: −log10 of the molar value.
observable: pIC50

{"columns": ["compound", "value-observed"],
 "data": [
  ["N[C@@H](Cc1ccccc1)C(=O)N1CCCC1", 4.68],
  ["NCCCC[C@H](N)C(=O)N1CCCC1", 4.41],
  ["NCCCC[C@H](N)C(=O)N1CCSC1", 4.64],
  ["N[C@@H](Cc1ccc(O)cc1)C(=O)N1CCCC1", 4.36]
]}

1: N#C[C@@H]1CCCCN1C(=O)[C@@H](N)CCCCN
2: NC(=O)C[C@H](N)C(=O)N1CCCC1
3: N[C@@H](CCCCNC(=O)OCc1ccccc1)C(=O)N1CCSC1
4: N[C@@H](CCCCNC(=O)OCc1ccccc1)C(=O)N1CCCC1
Order the entries by their reported pIC50, beginning at the minimum. A ranking is expressed here by listing the labels in the requested order.
2, 1, 4, 3

a: N=C(N)NCCC[C@H](N)C(=O)N1CCCC1
b: CC[C@H](C)[C@H](N)C(=O)N1CCCCCC1
Could you tell me which of a and b has the lower pIC50 reading? Record your answer as the label of the chosen record.
b
(b: 3.43, a: 4.90)

// data source = ChEMBL document CHEMBL1154997
